- System: SNB-75 CNS
- assayText: NCI tumour cell line growth inhibition, 48 h
Entries and their measured TGI follow.
measuredProperty: TGI

[
  {
    "compound": "Cn1c2ccccc2n2c(=O)c3cccnc3c(C#N)c12",
    "testedSystem": "SNB-75 CNS",
    "assayResult": "> 100 µM"
  },
  {
    "compound": "Cc1ccc(C(=O)CCC2C(=O)CC(C)(C)CC2=O)cc1",
    "testedSystem": "SNB-75 CNS",
    "assayResult": "> 100 µM"
  },
  {
    "compound": "S=C(c1c[nH]c2ccccc12)N1CCN(c2ccccc2)CC1",
    "testedSystem": "SNB-75 CNS",
    "assayResult": "21.6 µM"
  },
  {
    "compound": "C[Si](C)(C)/C=C\\CCCN1C(=O)CCC1=O",
    "testedSystem": "SNB-75 CNS",
    "assayResult": "> 100 µM"
  },
  {
    "compound": "Cc1ccc(S(=O)(=O)/N=C(\\[O-])C2=C(c3ccccc3)NN(C)c3nc4cccc[n+]4nc32)cc1",
    "testedSystem": "SNB-75 CNS",
    "assayResult": "> 100 µM"
  },
  {
    "compound": "CN(C)CCCn1c(-c2cc(C(C)(C)C)c(O)c(C(C)(C)C)c2)csc1=Nc1ccccc1",
    "testedSystem": "SNB-75 CNS",
    "assayResult": "8.34 µM"
  },
  {
    "compound": "CN(C)c1ccc2cc(-c3cc4c(oc3=O)-c3ccccc3OC4O)c(=O)oc2c1 (stereo unspecified)",
    "testedSystem": "SNB-75 CNS",
    "assayResult": "24 µM"
  },
  {
    "compound": "O=c1ccccc(-c2ccc(-c3ccco3)cc2)c1O",
    "testedSystem": "SNB-75 CNS",
    "assayResult": "> 100 µM"
  },
  {
    "compound": "CCOC(=O)C(C)(C)/C=C\\C(Cl)=C(Cl)Cl",
    "testedSystem": "SNB-75 CNS",
    "assayResult": "> 100 µM"
  },
  {
    "compound": "O=C(N/N=C\\c1ccc([N+](=O)[O-])cc1)c1ccccc1Nc1ccccc1C(=O)N/N=C/c1ccc([N+](=O)[O-])cc1",
    "testedSystem": "SNB-75 CNS",
    "assayResult": "> 100 µM"
  },
  {
    "compound": "CC1(C)C(=O)C2(OS(=O)(=O)C(F)(F)F)CCC1C2 (stereo unspecified)",
    "testedSystem": "SNB-75 CNS",
    "assayResult": "> 100 µM"
  },
  {
    "compound": "O=C(CN1CCOCC1)CC(O)(C(F)(F)F)C(F)(F)F",
    "testedSystem": "SNB-75 CNS",
    "assayResult": "> 100 µM"
  },
  {
    "compound": "NNC(=O)CCC(=O)Nc1ccc(Cl)cc1Cl",
    "testedSystem": "SNB-75 CNS",
    "assayResult": "> 100 µM"
  },
  {
    "compound": "C/C=C1\\C(=O)O[C@@H]2C1C[C@@H]1O[C@H]2[C@H](C)CCC/C(C)=C/CC[C@@]1(C)O (stereo partly specified)",
    "testedSystem": "SNB-75 CNS",
    "assayResult": "33.4 µM"
  },
  {
    "compound": "CC(C)(C)N1CC(OC(N)=O)C1",
    "testedSystem": "SNB-75 CNS",
    "assayResult": "> 100 µM"
  },
  {
    "compound": "CC1OC(O[C@H]2/C=C/C=C/C=C/C=C/C=C/C=C/C=C/[C@H](C)[C@@H](O)[C@@H](C)[C@H](C)OC(=O)C[C@H](O)C[C@H](O)CC[C@@H](O)[C@H](O)C[C@H](O)C[C@]3(O)C[C@H](O)[C@@H](C(=O)O)[C@H](C2)O3)C(O)C(N)C1O (stereo partly specified)",
    "testedSystem": "SNB-75 CNS",
    "assayResult": "61.7 µM"
  }
]
